AC50 values for the compounds below.
biological target: Transforming acidic coiled-coil-containing protein 3 (Homo sapiens) (UniProt Q9Y6A5); assay: inhibition of ARNT PAS-B/TACC3 complex formation – biochemical, AlphaScreen, cherry-picked samples, confirmation (AID 651703); conditions: AlphaScreen His-ARNT PAS-B / GST-TACC3 binding, luminescence;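 further: TACC3 partner is the GST-tagged E629A mutant dimer; hits lower the signal meaning they disrupt ARNT binding to TACC3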

Look over these answered cases.
{"smiles": "Oc1ccc(Br)cc1/C=N/Nc1ccccn1", "readout_kind": "AC50", "observed_measurement": "3.27 µM"}
{"smiles": "N[C@@H]1CC[C@@H](CCn2cc(-c3ccccn3)nn2)O[C@H]1CO", "readout_kind": "AC50", "observed_measurement": "0.565 µM"}
{"smiles": "Cc1cccc(CNC(=O)c2cc(-c3ccccc3)on2)c1", "readout_kind": "AC50", "observed_measurement": "23.4 µM"}

Let us examine a further case.
Inquiry: Using the record for `O=C(Nc1nc(-c2ccccn2)cs1)c1ccc(Cl)s1` , report its AC50.
Reply text: 3.61 µM
